Assay: Metabolic stability in rat liver microsome assessed as intrinsic clearance preincubated for 5 mins followed by NADPH addition and measured after 60 mins by HPLC analysis
Format: ADME
Details: liver microsomes, time 65 min, read-out: CLH
measuredQuantity: microsomal CLint (µL/min/mg)
// units = µL/min/mg; emit number, no label

Give its microsomal CLint value. Item: "CCCNNC(=O)c1cnc(NCc2ccc(OC)cc2)cn1"
36.2

---

Known IC50 at 72 h of a selection of compounds
Experiment: Cytotoxicity against human HEK293 cells assessed as inhibition of cell growth incubated for 72 hrs by MTT assay
Assay type: toxicity, cell-based
// units = µM; emit number, no label

INSERT INTO measurements (compoundstructure, assayvalue) VALUES
  ('CCCNNC(=O)c1cnc(Nc2cccc3ccccc23)cn1', 116);

Give its IC50 at 72 h value. Item: "CCCNNC(=O)c1cnc(NC(=O)c2ccc3ncccc3c2)cn1"
126

Give its IC50 at 72 h value. Item: "CCCCNNC(=O)c1cnc(Nc2ccccc2)cn1"
207

Give its IC50 at 72 h value. Item: "CCCNNC(=O)c1cnc(NC(=O)c2ccc3[nH]ccc3c2)cn1"
138

Give its IC50 at 72 h value. Item: "CCCNNC(=O)c1cnc(NC(C)=O)cn1"
118

Give its IC50 at 72 h value. Item: "CCCNNC(=O)c1cnccn1"
134

Give its IC50 at 72 h value. Item: "CCCNNC(=O)c1cnc(NCc2ccccc2)cn1"
110

---

Test: Cytotoxicity against human MCF-10A cells assessed as inhibition of cell growth incubated for 72 hrs by MTT assay
Type: toxicity, cell-based
Known IC50 at 72 h of a selection of molecules
// units = µM; emit number, no label

Give its IC50 at 72 h value. Item: "CCCNNC(=O)c1cnc(NCc2ccccc2)cn1"
114

Give its IC50 at 72 h value. Item: "CCCNNC(=O)c1cnccn1"
117

Give its IC50 at 72 h value. Item: "CCCCNNC(=O)c1cnc(N2CCCCC2)cn1"
104

Give its IC50 at 72 h value. Item: "CCCNNC(=O)c1cnc(N2CCCCC2)cn1"
110

Give its IC50 at 72 h value. Item: "CCCNNC(=O)c1cnc(NCc2ccc(OC)cc2)cn1"
212

---

Tested on: MDA-MB-231
Assay: Cytotoxicity against wild type human MDA-MB-231 cells assessed as reduction in cell viability incubated for 72 hrs by MTT assay
Type: functional, cell-based
Settings: MDA-MB-231, 72 h
measuredQuantity: IC50

INSERT INTO assay_data (compoundstructure, assayvalue) VALUES
  ('CCCCNNC(=O)c1ccc(Br)cc1', '24.7 µM');

Please examine the following record next.
Please state recorded IC50 (tested on MDA-MB-231) of "CCCNNC(=O)c1cnc(NCc2ccc(OC)cc2)cn1"
0.743 µM

---

Tested on: MDA-MB-231
Assay: Cytotoxicity against human MDA-MB-231 cells assessed as inhibition of cell growth incubated for 72 hrs by MTT assay
Format: functional, cell-based
Settings: MDA-MB-231, 72 h
Known log10(IC50) of a selection of compounds
Base-10 log of IC50, unit nM.

Below, each entry is followed by its recorded log10(IC50) result.
INSERT INTO results (compoundstructure, assayvalue) VALUES
  ('CCCNNC(=O)c1cnc(N2CCCCC2)cn1', 5.12),
  ('CCCNNC(=O)c1cnc(NC(=O)c2ccc3ncccc3c2)cn1', 2.94),
  ('CCCNNC(=O)c1cnc(Nc2ccccc2)cn1', 3.27);

Please state recorded log10(IC50) (tested on MDA-MB-231) of "CCCNNC(=O)c1cnc(NC(C)=O)cn1"
2.99

Please state recorded log10(IC50) (tested on MDA-MB-231) of "CCCCNNC(=O)c1cnc(Nc2ccccc2)cn1"
3.28

Please state recorded log10(IC50) (tested on MDA-MB-231) of "CCCNNC(=O)c1cnc(NCc2ccccc2)cn1"
3.09

Please state recorded log10(IC50) (tested on MDA-MB-231) of "CCCCNNC(=O)c1cnc(NC(=O)c2ccc3[nH]ccc3c2)cn1"
3.23

---

Assay: Tmax in Wistar rat at 5 mg/kg, ip measured upto 24 hrs by HPLC analysis
Assay type: ADME, organism-based
Conditions: in vivo
measuredQuantity: Tmax (h)
// units = h; emit number, no label

Give its Tmax value. Item: "CCCNNC(=O)c1cnc(NCc2ccc(OC)cc2)cn1"
2

---

Test: Cytotoxicity against human HEK293 cells assessed as inhibition of cell growth incubated for 72 hrs by MTT assay
Format: toxicity, cell-based
Known IC50 at 72 h of a selection of compounds
// units = µM; emit number, no label

Below, each entry is followed by its recorded IC50 at 72 h result.
INSERT INTO assay_data (compoundstructure, assayvalue) VALUES
  ('CCCNNC(=O)c1cnc(NCc2ccc(OC)cc2)cn1', 239),
  ('CCCCNNC(=O)c1cnc(NC(=O)c2ccc3ncccc3c2)cn1', 264),
  ('CCCNNC(=O)c1cnc(N)cn1', 141),
  ('CCCCNNC(=O)c1cnc(NC(C)=O)cn1', 229),
  ('CCCCNNC(=O)c1cnc(NC(=O)c2ccc3[nH]ccc3c2)cn1', 107),
  ('CCCCNNC(=O)c1cnc(Nc2cccc3ccccc23)cn1', 189),
  ('CCCCNNC(=O)c1cnc(NCc2ccccc2)cn1', 133),
  ('CCCCNNC(=O)c1cnc(NCc2ccc(OC)cc2)cn1', 107),
  ('CCCNNC(=O)c1cnc(Nc2ccccc2)cn1', 218),
  ('CCCCNNC(=O)c1cnccn1', 101);

Give its IC50 at 72 h value. Item: "CCCCNNC(=O)c1cnc(N2CCCCC2)cn1"
101

Give its IC50 at 72 h value. Item: "CCCCNNC(=O)c1cnc(N)cn1"
133

Give its IC50 at 72 h value. Item: "CCCNNC(=O)c1cnc(N2CCCCC2)cn1"
118

---

Known pIC50 of a selection of compounds
Test system: MDA-MB-453
Experiment: Cytotoxicity against human MDA-MB-453 cells assessed as inhibition of cell growth incubated for 72 hrs by MTT assay
Assay type: functional, cell-based
Settings: MDA-MB-453, 72 h
Note: pIC50 values are expressed as the negative base-10 logarithm of concentration in M.

Give its pIC50 value. Item: "CCCCNNC(=O)c1cnc(Nc2ccccc2)cn1"
5.29

---

Assay: Cytotoxicity against human MCF-10A cells assessed as inhibition of cell growth incubated for 72 hrs by MTT assay
Assay type: toxicity, cell-based
Known IC50 at 72 h of a selection of compounds
// units = µM; emit number, no label

INSERT INTO assay_data (compoundstructure, measuredquantity, assayvalue) VALUES
  ('CCCCNNC(=O)c1cnc(NCc2ccccc2)cn1', 'IC50 at 72 h', 113),
  ('CCCNNC(=O)c1cnc(NC(C)=O)cn1', 'IC50 at 72 h', 142),
  ('CCCCNNC(=O)c1cnc(NC(=O)c2ccc3ncccc3c2)cn1', 'IC50 at 72 h', 220),
  ('CCCCNNC(=O)c1cnc(N)cn1', 'IC50 at 72 h', 118);

Give its IC50 at 72 h value. Item: "CCCCNNC(=O)c1ccc(Br)cc1"
99.3

Give its IC50 at 72 h value. Item: "CCCCNNC(=O)c1cnc(Nc2cccc3ccccc23)cn1"
114

Give its IC50 at 72 h value. Item: "CCCCNNC(=O)c1cnc(NCc2ccc(OC)cc2)cn1"
109

Give its IC50 at 72 h value. Item: "CCCCNNC(=O)c1cnc(NC(=O)c2ccc3[nH]ccc3c2)cn1"
105

Give its IC50 at 72 h value. Item: "CCCCNNC(=O)c1cnc(Nc2ccccc2)cn1"
138

---

Tested on: MDA-MB-453
Experiment: Cytotoxicity against human MDA-MB-453 cells assessed as inhibition of cell growth incubated for 72 hrs by MTT assay
Assay type: functional, cell-based
Conditions: MDA-MB-453, 72 h
Please respond with y when measured IC50 is strictly beneath 5 µM, and with n in all other cases.

Study these solved cases before continuing.
INSERT INTO assay_data (compoundstructure, discretelabel) VALUES
  ('CCCCNNC(=O)c1cnc(NC(C)=O)cn1', 'n'),
  ('CCCNNC(=O)c1cnc(Nc2ccccc2)cn1', 'n'),
  ('CCCNNC(=O)c1cnc(Nc2cccc3ccccc23)cn1', 'y'),
  ('CCCNNC(=O)c1cnc(N2CCCCC2)cn1', 'y'),
  ('CCCCNNC(=O)c1cnc(N2CCCCC2)cn1', 'n'),
  ('CCCNNC(=O)c1cnc(NCc2ccc(OC)cc2)cn1', 'y');

Determine if "CCCCNNC(=O)c1cnc(NC(=O)c2ccc3[nH]ccc3c2)cn1" shows IC50 strictly lower than 5 µM.
y

Determine if "CCCNNC(=O)c1cnc(NC(=O)c2ccc3ncccc3c2)cn1" shows IC50 strictly lower than 5 µM.
y

Determine if "CCCCNNC(=O)c1cnc(NCc2ccc(OC)cc2)cn1" shows IC50 strictly lower than 5 µM.
y
